Every entry's value here was drawn from the supplement of paper PMC10849652.

molecular target: ZBTB17 isoform 2 (UniProt Q13105); assay: log2 fold change, soluble protein after heating vs DMSO (PISA); higher = thermal stabilisation; K562 cells, 10 uM, 30 min; active = over 0.2 and 3.5 SD of the protein, either way, in both replicates (recomputed)
Sequence (Q13105 whole entry, looked up, canonical isoform): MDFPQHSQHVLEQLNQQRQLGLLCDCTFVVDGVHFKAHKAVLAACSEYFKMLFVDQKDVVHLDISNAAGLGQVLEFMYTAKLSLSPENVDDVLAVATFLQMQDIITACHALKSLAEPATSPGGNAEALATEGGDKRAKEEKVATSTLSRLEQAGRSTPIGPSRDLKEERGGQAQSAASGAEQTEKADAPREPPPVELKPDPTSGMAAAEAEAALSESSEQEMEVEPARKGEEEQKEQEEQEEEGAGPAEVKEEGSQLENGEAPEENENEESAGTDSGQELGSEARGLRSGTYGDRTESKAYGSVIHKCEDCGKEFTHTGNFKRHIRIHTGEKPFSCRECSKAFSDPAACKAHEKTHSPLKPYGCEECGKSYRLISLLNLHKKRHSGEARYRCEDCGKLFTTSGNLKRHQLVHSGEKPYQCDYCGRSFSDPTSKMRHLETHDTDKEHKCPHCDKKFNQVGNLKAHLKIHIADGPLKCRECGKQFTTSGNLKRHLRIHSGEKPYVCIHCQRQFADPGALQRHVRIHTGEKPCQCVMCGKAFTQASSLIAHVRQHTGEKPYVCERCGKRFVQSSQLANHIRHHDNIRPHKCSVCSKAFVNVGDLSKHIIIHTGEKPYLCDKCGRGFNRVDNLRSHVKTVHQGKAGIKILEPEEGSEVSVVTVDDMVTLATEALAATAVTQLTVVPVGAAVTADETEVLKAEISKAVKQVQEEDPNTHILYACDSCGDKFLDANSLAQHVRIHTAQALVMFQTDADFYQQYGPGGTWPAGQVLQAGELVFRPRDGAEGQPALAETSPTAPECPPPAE
About 7,900 targets were measured; listed, in parts, are those with a hit and a random draw of the rest. About 0.6% of all pairs of compound and target were hits.
property.label: log2 fold change
Please reply with the number alone, leaving off any unit.

Worked examples follow.
COc1cccc2cc(-c3nc([C@H]4CC[C@H](C(=O)O)CC4)n4ncnc(N)c34)[nH]c12 | -0.006
Nc1ccccc1NC(=O)c1ccc(CNC(=O)OCc2cccnc2)cc1 [entinostat] | -0.14
CCN(CCCOc1ccc2c(Nc3cc(CC(=O)Nc4cccc(F)c4)[nH]n3)ncnc2c1)CCOP(=O)(O)O [barasertib] | -0.048
O=C1NC(=O)/C(=C\c2ccc3nccnc3c2)S1 | 0.171

Data request: Give log2 fold change for CCCc1cc(C)[nH]c(=O)c1CNC(=O)c1cc(-c2ccnc(N3CCN(C)CC3)c2)cc2c1cnn2C(C)C tested on ZBTB17 isoform 2 (UniProt Q13105).
Data returned: -0.158

* * *

molecular target: ZDHHC7 isoform 2 (UniProt Q9NXF8); experiment: log2 fold change, soluble protein after heating vs DMSO (PISA); higher = thermal stabilisation; K562 cells, 10 uM, 30 min; active = over 0.2 and 3.5 SD of the protein, either way, in both replicates (recomputed)
Sequence (Q9NXF8 whole entry, looked up, canonical isoform): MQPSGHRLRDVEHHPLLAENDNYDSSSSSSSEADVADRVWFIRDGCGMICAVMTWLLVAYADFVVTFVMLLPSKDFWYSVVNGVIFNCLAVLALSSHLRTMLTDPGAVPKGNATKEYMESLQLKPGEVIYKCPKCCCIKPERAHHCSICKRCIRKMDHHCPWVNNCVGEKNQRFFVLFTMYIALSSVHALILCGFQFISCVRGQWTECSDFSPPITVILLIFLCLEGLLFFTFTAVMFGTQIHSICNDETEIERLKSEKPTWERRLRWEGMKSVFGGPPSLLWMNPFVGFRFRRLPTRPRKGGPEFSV
Targets with a hit are over-represented here; the source holds about 7,900 in all. About 0.6% of all pairs of compound and target were hits.
property.label: log2 fold change
Please respond with just the number, no unit label.

Observe how each entry below is paired with its result.
O=C1c2ccccc2-c2n[nH]c3cccc1c23 | 0.01
Cc1cn(-c2cc(NC(=O)c3ccc(C)c(Nc4nccc(-c5cccnc5)n4)c3)cc(C(F)(F)F)c2)cn1 | 0.104
CC1=C(C(=O)Nc2cc3cn[nH]c3cc2F)C(c2ccc(C(F)(F)F)cc2)CC(=O)N1 (stereo not drawn) | 0.114
Cc1ccc(NC(=O)c2cccc(N(C)C)c2)cc1NC(=O)c1ccc(O)cc1 | 0.014

Data request: Find the measured log2 fold change of COc1cc(C(=O)O)ccc1NC(=O)[C@@H]1N[C@@H](CC(C)(C)C)[C@](C#N)(c2ccc(Cl)cc2F)[C@H]1c1cccc(Cl)c1F and report it.
Data returned: -0.013

Data request: Check the records and state log2 fold change for CC[C@H](C)[C@H](NC(=O)[C@H]([C@@H](C)CC)N(C)C(C)=O)C(=O)N[C@H](C(=O)N[C@@H](CC(C)C)C(=O)[C@@]1(C)CO1)[C@@H](C)O
Data returned: 0.124

Data request: Check the records and state log2 fold change for Cn1cc(-c2ccc3c(c2)CCN3C(=O)Cc2cccc(C(F)(F)F)c2)c2c(N)ncnc21
Data returned: -0.088

Data request: Specify reported log2 fold change for the compound shown: Cn1cncc1[C@@](N)(c1ccc(Cl)cc1)c1ccc2c(c1)c(-c1cccc(Cl)c1)cc(=O)n2C
Data returned: -0.047

Data request: Consider the compound CN1CCN(CCOc2cc(OC3CCOCC3)c3c(Nc4c(Cl)ccc5c4OCO5)ncnc3c2)CC1 and give its recorded log2 fold change.
Data returned: 0.034

Data request: Indicate its recorded log2 fold change; the compound in question is Cc1ccc(-n2nc(C(C)(C)C)cc2NC(=O)Nc2ccc(OCCN3CCOCC3)c3ccccc23)cc1
Data returned: 0.113

Data request: Report log2 fold change, nothing else, for this compound: Cc1cccc(-c2[nH]c(C(C)(C)C)nc2-c2ccc3nccnc3c2)n1
Data returned: 0.335

Data request: For the compound CC(C)c1cnn2c(NCc3ccccc3)cc(NCCCCCCN)nc12 , report log2 fold change.
Data returned: -0.008

Data request: Given Fc1ccc(Cl)cc1-c1nc(Nc2ccncc2)c2nccnc2n1 , respond with its log2 fold change.
Data returned: 0.093
